Test system: T-47D breast
Test: NCI-60 one-dose screen, 48 h
Conditions: 10 µM unless noted
About 83,000 compounds went through this panel and 20% of them were active in at least one assay; those are over-represented in the sample as a whole. Activity calls are given as the source filed them. How the source made its calls: active means growth percent below 10; inactive means the rest.
Hi! Could you answer with just one of these? label 1 = active, label 0 = inactive

See these solved cases before continuing.
In this assay, the call recorded for `CCCCCc1c(C)[nH]c(/C=c2\[nH]/c(=C3/C=c4ccccc4=N3)cc2OC)c1C` was what?
label 1

Record request — test call for `O=C(NNC(=S)Nc1ccccc1)c1ccccn1`
label 0

Could you kindly confirm the outcome this assay logged for `CC(C)C[C@H](NC(=O)[C@H](Cc1ccccc1)n1ccc(N2CCCCC2)cc1=O)B(O)O` ?
label 1

Please indicate how the test categorized CCN(CC)CCCC(C)N=c1cc(Nc2cc(=NC(C)CCCN(CC)CC)c3cc(OC)ccc3o2)oc2ccc(OC)cc12 (stereo not drawn) .
label 0

Name the outcome recorded for `O=C(/C=C/c1ccccc1)n1c(-c2ccc(Cl)cc2)nc2ccccc21` in the assay.
label 1

Would you mind telling me which call this test gave `CCN(CC)c1cc(/C=C/c2ccc(OC)c(OC)c2)nc2cc(F)c(F)cc12` ?
label 0

Can you look up the reported call for COc1cc(C2C=C(C)N=C3SC=C(C)N32)cc(OC)c1OC (stereo not drawn) for me?
label 1

Dear colleague, could you share the recorded outcome for `Cc1ccc2nc(-c3c(CCCO)noc3N)[nH]c(=O)c2c1` when you have a moment?
label 0

---
So what was the verdict on `Nc1c(C(=O)Nc2ccccc2)sc2nc3c(cc12)CN(Cc1ccccc1)CC3` in this test?
label 0

Outcome? `O=S(=O)(c1ccccc1)n1ccc(-c2ccc3c(c2)CCO3)n1`
label 0

Just curious, what result did `COc1cc(-c2csc(NC(=O)Nc3ccc(Cl)cc3Cl)n2)cc(OC)c1OC` get here?
label 0

How was `COc1ccc(Cl)cc1NC(N)=S` classified in this test?
label 0

Please share the test call associated with `Oc1ccc(Cl)cc1-c1cc(-c2ccc(Cl)cc2)n[nH]1` .
label 0
